# ASSAY_EXPLANATION: qHTS assay to identify small molecule agonists of the retinoic acid receptor (RAR) signaling pathway (AID 1159553)
# SETUP_CONDITIONS: C3RL4 RARE luciferase reporter, agonist, 6 h
Records with an inconclusive call do not appear. Calls of active or inactive are those of the source. Calls come from the whole dose curve; as a rule, active = well fitted activation curve with a large enough effect in the repeat runs; inconclusive = weak or mixed curves, or effect the other way; inactive = no such curve, though single readings can be large or run the other way.
Outcomes: yes (1) = active, no (0) = inactive

{"MOLECULE": "O=C(O)c1ccccc1C(=O)OCc1ccccc1", "LABEL_VALUE": "yes (1)"}
{"MOLECULE": "O=S(=O)(O)SSS(=O)(=O)O", "LABEL_VALUE": "no (0)"}
{"MOLECULE": "CCOC(=O)C(=O)c1csc(NC=O)n1", "LABEL_VALUE": "no (0)"}
{"MOLECULE": "Nc1c(NC/C=C\\COc2cc(CN3CCCCC3)ccn2)c(=O)c1=O", "LABEL_VALUE": "no (0)"}
{"MOLECULE": "C=C(C)C(=O)OCCCCCCOC(=O)C(=C)C", "LABEL_VALUE": "no (0)"}
{"MOLECULE": "C=COCCOCCOC=C", "LABEL_VALUE": "no (0)"}
{"MOLECULE": "C=C(C)C(=O)OC1CC(C)CC(C)(C)C1 (stereo not drawn)", "LABEL_VALUE": "no (0)"}
{"MOLECULE": "CCOC(=O)CCc1ccccc1", "LABEL_VALUE": "no (0)"}
{"MOLECULE": "CC1(N)CCC(C(C)(C)N)CC1 (stereo not drawn)", "LABEL_VALUE": "no (0)"}
{"MOLECULE": "Cc1cccc(Nc2ccncc2S(=O)(=O)NC(=O)NC(C)C)c1", "LABEL_VALUE": "no (0)"}
{"MOLECULE": "Cc1oc(=O)oc1CN1CCN(c2cc3c(cc2F)c(=O)c(C(=O)O)c2n3C(C)S2)CC1 (stereo not drawn)", "LABEL_VALUE": "no (0)"}
{"MOLECULE": "CC(CC(=O)O)CC(C)(C)C (stereo not drawn)", "LABEL_VALUE": "no (0)"}
{"MOLECULE": "CC(C)C(=O)Nc1cccc(C(F)(F)F)c1", "LABEL_VALUE": "no (0)"}
